Reference source for all entries: patent US20150196651A1

EXPERIMENTAL_SYSTEM: T1, rat PrRP receptor in RC-4B/C cells (rat, UniProt Q64121 1-370)
T1 construct: whole, on cells; endogenous receptor of RC-4B/C cells (ATCC); also called rat receptor; GPR10 receptor expressed in rat hypophyseal cells
T1 sequence (looked up): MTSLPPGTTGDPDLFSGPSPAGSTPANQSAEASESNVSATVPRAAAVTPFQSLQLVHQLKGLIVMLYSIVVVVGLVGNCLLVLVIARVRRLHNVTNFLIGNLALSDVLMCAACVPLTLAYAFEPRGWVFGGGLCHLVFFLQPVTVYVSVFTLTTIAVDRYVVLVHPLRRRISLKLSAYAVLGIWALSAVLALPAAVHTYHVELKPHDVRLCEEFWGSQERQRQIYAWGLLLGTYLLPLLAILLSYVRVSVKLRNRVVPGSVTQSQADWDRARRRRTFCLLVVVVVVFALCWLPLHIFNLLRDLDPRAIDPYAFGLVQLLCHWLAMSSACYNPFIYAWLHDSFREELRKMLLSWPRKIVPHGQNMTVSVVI
TEST_SUMMARY: competition with 125I-rat PrRP31, RC-4B/C cells
Square brackets hold non-standard residues; d marks the D form. Ends that are not written are not given here. * marks the point of attachment. 1Nal = N[C@@H](Cc1cccc2ccccc12)C(=O)O; Stearoyl = CCCCCCCCCCCCCCCCCC(=O)*; Palmitoyl = CCCCCCCCCCCCCCCC(=O)*; Lauroyl = CCCCCCCCCCCC(=O)*; Nle = CCCC[C@H](N)C(=O)O
MEASURED_ATTRIBUTE: pKi
A value of pKi is the negative decimal logarithm of a concentration given in moles per litre.

Stearoyl-SRAHQHS[Nle]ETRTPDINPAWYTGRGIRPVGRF-NH2 [analog no. 9]    9.02
Lauroyl-SRAHQHS[Nle]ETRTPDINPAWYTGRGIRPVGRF-NH2 [analog no. 6]    9.41
SETHRHSMEIKTPDINPAWYASRGIRPVGRF (K(N-POE(N-palm)) at residue 11; C-terminal amide) [analog no. 58]    9.39

get_value(item= Palmitoyl-SRAHQHS[Nle]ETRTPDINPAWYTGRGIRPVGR[1Nal]-NH2 [analog no. 12] , readout=pKi) returns 8.66

get_value(item= TPDINPAWYASRPFRPVGRF-NH2 [analog no. 33] , readout=pKi) returns 8.67

get_value(item= SRTHRHSMEIRTPDINPAWYASRGIRPVGRF-NH2 (synthetic peptide) [Human PrRP31] , readout=pKi) returns 8.62
